Where do these numbers come from? They come from paper PMC9229919.

Biological target: recombinant human AChE (Homo sapiens, UniProt P22303)
Construct: gift of Dr Florian Nachon (Armed Forces Biomedical Research Institute, Brétigny-sur-Orge, France)
Sequence (P22303 32-614): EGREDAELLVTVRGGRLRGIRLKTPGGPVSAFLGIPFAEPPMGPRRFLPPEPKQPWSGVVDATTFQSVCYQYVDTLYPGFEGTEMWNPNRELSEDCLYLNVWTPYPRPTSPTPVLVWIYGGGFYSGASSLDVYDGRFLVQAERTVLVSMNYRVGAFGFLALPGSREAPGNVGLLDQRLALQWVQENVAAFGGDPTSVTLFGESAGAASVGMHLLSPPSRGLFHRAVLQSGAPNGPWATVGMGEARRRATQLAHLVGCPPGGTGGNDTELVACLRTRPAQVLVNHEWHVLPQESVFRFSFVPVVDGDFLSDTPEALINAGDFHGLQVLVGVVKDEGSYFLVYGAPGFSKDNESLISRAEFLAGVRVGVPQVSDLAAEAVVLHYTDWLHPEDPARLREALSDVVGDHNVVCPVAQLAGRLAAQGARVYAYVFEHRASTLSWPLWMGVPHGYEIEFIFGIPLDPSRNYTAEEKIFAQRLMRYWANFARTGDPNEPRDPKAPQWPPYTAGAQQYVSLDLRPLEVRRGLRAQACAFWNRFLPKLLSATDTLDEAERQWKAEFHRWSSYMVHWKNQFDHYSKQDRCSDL
Assay: biochemical
Format: biochemical
Details: ± standard error; 25 °C, ATCh substrate; read-out: Ki AChE
TEST READOUT: pKi
Quick note: pKi means taking -log10 of the concentration in moles per liter.

Reported pKi of `Clc1ccc2c(NCCCCCN(CCC34CC5CC(CC(C5)C3)C4)CCC34CC5CC(CC(C5)C3)C4)ccnc2c1` : 6.48

Reported pKi of `Clc1ccc2c(N3CCN(CCC45CC6CC(CC(C6)C4)C5)CC3)ccnc2c1` : 5.68

Reported pKi of CC(CCNCC12CC3CC(CC(C3)C1)C2)Nc1ccnc2ccccc12 (stereo not shown) : 6.13

Reported pKi of CC(CCNCCC12CC3CC(CC(C3)C1)C2)Nc1ccnc2cc(Cl)ccc12 (stereo not shown) : 5.72

Reported pKi of `Clc1ccc2c(NCCCCNCC34CC5CC(CC(C5)C3)C4)ccnc2c1` : 6.00

Reported pKi of `Clc1ccc2c(NCCCCN(CCC34CC5CC(CC(C5)C3)C4)CCC34CC5CC(CC(C5)C3)C4)ccnc2c1` : 5.62

Reported pKi of `Clc1ccc2c(NCCNCCC34CC5CC(CC(C5)C3)C4)ccnc2c1` : 5.80

Reported pKi of `Clc1ccc2c(NCCNCC34CC5CC(CC(C5)C3)C4)ccnc2c1` : 5.92

Reported pKi of `Clc1ccc2c(Nc3cccc4c(NCCC56CC7CC(CC(C7)C5)C6)cccc34)ccnc2c1` : 5.42

Reported pKi of `Clc1ccc2c(N3CCN(CC45CC6CC(CC(C6)C4)C5)CC3)ccnc2c1` : 5.03

Reported pKi of CC(CCNCC12CC3CC(CC(C3)C1)C2)Nc1ccnc2cc(C(F)(F)F)ccc12 (stereo not shown) : 6.04

Reported pKi of `FC(F)(F)c1ccc2c(NCCNCC34CC5CC(CC(C5)C3)C4)ccnc2c1` : 5.92

Reported pKi of `Clc1ccc2c(NCCCCCCCCNCC34CC5CC(CC(C5)C3)C4)ccnc2c1` : 7.12

Reported pKi of `Clc1ccc2c(NCCCN3CCN(CCCNCC45CC6CC(CC(C6)C4)C5)CC3)ccnc2c1` : 6.16

Reported pKi of `Clc1ccc2c(NCCN(CCC34CC5CC(CC(C5)C3)C4)CCC34CC5CC(CC(C5)C3)C4)ccnc2c1` : 5.28

Reported pKi of `Clc1ccc2c(Nc3cccc(NCC45CC6CC(CC(C6)C4)C5)c3)ccnc2c1` : 5.05

Reported pKi of CC(CCNCCC12CC3CC(CC(C3)C1)C2)Nc1ccnc2ccccc12 (stereo not shown) : 6.28

Reported pKi of `Clc1ccc2c(NCCCCCCNCC34CC5CC(CC(C5)C3)C4)ccnc2c1` : 6.17

Reported pKi of `Clc1ccc2c(Nc3ccc(NCC45CC6CC(CC(C6)C4)C5)cc3)ccnc2c1` : 5.48

Reported pKi of `Clc1ccc2c(NCCCN3CCN(CCCNCCC45CC6CC(CC(C6)C4)C5)CC3)ccnc2c1` : 6.36

Reported pKi of CC(CCNCC12CC3CC(CC(C3)C1)C2)Nc1ccnc2cc(Cl)ccc12 (stereo not shown) : 6.25

Reported pKi of `FC(F)(F)c1ccc2c(NCCCNCC34CC5CC(CC(C5)C3)C4)ccnc2c1` : 5.96
